# test: RP, Waters ACQUITY UPLC HSS T3, 100 × 2.1 mm, 1.8 µm, 30 °C, 0.3 mL/min, estimated dead time 0.73 min; A: water + 0.1% formic acid, pH 3; B: methanol + 0.1% formic acid, pH 3; gradient (min/%B) 0/0 6/0 56/100 60/100
# assay-conditions: stereoisomer not certain
property-name: LC retention time (min)

These recorded examples may help you get a feel for the data.
[[record]]
molecule = "COc1cc(-c2oc3cc(=O)cc4oc(O)cc(c2OC2OC(CO)C(O)C(O)C2O)c43)cc(OC)c1O (centres undefined) [oxovitisin A]"
unit_of_measure = "min"
readout_number = 33.2

[[record]]
molecule = "CC(C)[C@H](N)C(=O)O [L-valine]"
unit_of_measure = "min"
readout_number = 2.19

[[record]]
molecule = "Cc1cc2nc3c(=O)[nH]c(=O)nc-3n(CC(O)C(O)C(O)CO)c2cc1C (centres undefined) [riboflavin]"
unit_of_measure = "min"
readout_number = 23.9

[[record]]
molecule = "CC(O)C(=O)O (centres undefined) [lactic acid]"
unit_of_measure = "min"
readout_number = 2.51

[[record]]
molecule = "CC(C)CCCC(C)C1CCC2C3CC4OC45CC(O)CCC5(C)C3CCC12C (racemic)"
unit_of_measure = "min"
readout_number = 57.7


P = O=C1CC(c2ccc(O)c(O)c2)c2c(cc(O)c3c2OC(c2ccc(O)c(O)c2)C(O)C3)O1 (centres undefined) [caffeic acid+catechin condensation product]
Q = NC(CCC(=O)NC(CS)C(=O)O)C(=O)O (centres undefined) [gamma-glutamylcysteine]
Please indicate which has the smaller reported LC retention time: P , or Q . // respond with label for picked entry Q
(Q: 3.27 min, P: 26.1 min)

1 = CC(=O)C=CC1C(C)CCCC1(C)C (stereo not drawn) [dihidro alpha ionone]
2 = O=C(O)C=Cc1ccccc1O [o-coumaric acid]
Please indicate which has the smaller reported LC retention time: 1 , or 2 . // respond with label for picked entry 2
(2: 28.1 min, 1: 46.1 min)

P = O=c1c(-c2ccc(O)cc2)coc2cc(O)ccc12 [daidzein]
Q = CCCCCCCCCCCCCCCCCCCCCCCC(=O)O [lignoceric acid]
Please indicate which has the smaller reported LC retention time: P , or Q . // respond with label for picked entry P

###

# test: RP, Waters ACQUITY UPLC HSS T3, 100 × 2.1 mm, 1.8 µm, 30 °C, 0.3 mL/min, estimated dead time 0.73 min; A: water + 0.1% formic acid, pH 3; B: methanol + 0.1% formic acid, pH 3; gradient (min/%B) 0/0 6/0 56/100 60/100
# assay-conditions: stereoisomer not certain
property-name: LC retention time (min)

[[record]]
compound = "O=C(C=Cc1ccc(O)c(O)c1)OC(C(=O)O)C(O)C(=O)O (centres undefined) [caftaric acid]"
property_name = "LC retention time"
readout_number = 15.5

[[record]]
compound = "CC(CCC(=O)O)C1CCC2C3C(O)CC4CC(O)CCC4(C)C3CC(O)C12C (centres undefined) [cholic acid]"
property_name = "LC retention time"
readout_number = 46.8

[[record]]
compound = "O=C(C=Cc1ccc(O)c(O)c1)OC1CC(OC(=O)C=Cc2ccc(O)c(O)c2)(C(=O)O)CC(O)C1O (centres undefined) [1,3 - dicaffeoylquinic acid]"
property_name = "LC retention time"
readout_number = 24.9

[[record]]
compound = "Nc1ncnc2nc[nH]c12 [adenine*]"
property_name = "LC retention time"
readout_number = 2.33


1 = O=c1c(O)c(-c2ccccc2)oc2cc(O)cc(O)c12 [galangin]
2 = OCCc1ccc(O)cc1 [tyrosol]
Please indicate which has the smaller reported LC retention time: 1 , or 2 . // respond with label for picked entry 2

A = Oc1ccc(C=Cc2ccccc2)cc1 [4-stilbenol]
B = O=C(O)C(O)Cc1c[nH]c2ccccc12 (centres undefined) [Indolelactic acid]
Please indicate which has the smaller reported LC retention time: A , or B . // respond with label for picked entry B

###

# test: RP, Waters ACQUITY UPLC HSS T3, 100 × 2.1 mm, 1.8 µm, 30 °C, 0.3 mL/min, estimated dead time 0.73 min; A: water + 0.1% formic acid, pH 3; B: methanol + 0.1% formic acid, pH 3; gradient (min/%B) 0/0 6/0 56/100 60/100
# assay-conditions: stereoisomer not certain
property-name: LC retention time (min)

[[record]]
compound = "NC(CCC(=O)NC(CS)C(=O)NCC(=O)O)C(=O)O [L-glutathione]"
property_name = "LC retention time"
readout_number = 3.4


P = Oc1ccccc1O [pyrocatechol]
Q = CCCCCCCCCCCCCCCC(=O)OC [methyl palmitate]
R = O=C(O)c1ccccc1O [salicylic acid]
S = NCCCCNCCCN [spermidine]
T = CC(C)CCN [isopentylamine]
Sort (5 compounds) by LC retention time: min first. Form entry: labels listed in requested order. S, T, P, R, Q
(S: 1.04 min, T: 6.9 min, P: 13 min, R: 26.4 min, Q: 56.4 min)

###

# test: RP, Waters ACQUITY UPLC HSS T3, 100 × 2.1 mm, 1.8 µm, 30 °C, 0.3 mL/min, estimated dead time 0.73 min; A: water + 0.1% formic acid, pH 3; B: methanol + 0.1% formic acid, pH 3; gradient (min/%B) 0/0 6/0 56/100 60/100
# assay-conditions: stereoisomer not certain
property-name: LC retention time (min)

[[record]]
compound = "COc1cc(-c2[o+]c3cc(O)cc(OC4OC(CO)C(O)C(O)C4O)c3cc2OC2OC(CO)C(O)C(O)C2O)ccc1O (stereo unspecified) [peonidin 3,5 diglucoside]"
property_name = "LC retention time"
unit_of_measure = "min"
readout_number = 20.2

[[record]]
compound = "O=C(O)c1cc(O)ccc1O"
property_name = "LC retention time"
unit_of_measure = "min"
readout_number = 17

[[record]]
compound = "OCC1OC(OC2OC(CO)C(O)C(O)C2O)C(O)C(O)C1O [D-(+)-trehalose]"
property_name = "LC retention time"
unit_of_measure = "min"
readout_number = 1.5

[[record]]
compound = "O=c1cc(O)c2ccccc2o1 [4-hydroxycoumarin]"
property_name = "LC retention time"
unit_of_measure = "min"
readout_number = 24.2

[[record]]
compound = "OC1C(O)C(O)C(O)C(O)C1O (stereo unspecified)"
property_name = "LC retention time"
unit_of_measure = "min"
readout_number = 1.22


P = O=C(O)C(O)C(O)C(O)C(O)CO (stereo unspecified)
Q = COC(=O)C1=COC(O)C2C(CO)=CCC12 (stereo unspecified)
Please indicate which has the smaller reported LC retention time: P , or Q . // respond with label for picked entry P

a = CCCCCC(O)C=CC=CCC=CCC=CCCCC(=O)O [15(S)hydroxy-(5Z,8Z,11Z,13E)-eicosatetraenoic acid]
b = COc1cc(C=CCO)ccc1O
Please indicate which has the smaller reported LC retention time: a , or b . // respond with label for picked entry b

a = O=CC(O)C(O)CO (stereo unspecified)
b = CC(C)C(=O)OCCOc1ccccc1 [2-phenoxyethyl isobutyrate]
Please indicate which has the smaller reported LC retention time: a , or b . // respond with label for picked entry a
(a: 1.47 min, b: 40.2 min)

A = C=C1CC23CC1(O)CCC2C12C=CC(O)C(C)(C(=O)O1)C2C3C(=O)O (stereo unspecified)
B = OCC1OC(O)C(O)C1O [D-(-)-Ribose]
Of the two listed items, which has the higher LC retention time? First: A Second: B // respond with label for picked entry A

###

# test: RP, Waters ACQUITY UPLC HSS T3, 100 × 2.1 mm, 1.8 µm, 30 °C, 0.3 mL/min, estimated dead time 0.73 min; A: water + 0.1% formic acid, pH 3; B: methanol + 0.1% formic acid, pH 3; gradient (min/%B) 0/0 6/0 56/100 60/100
# assay-conditions: stereoisomer not certain
property-name: LC retention time (min)

These recorded examples may help you get a feel for the data.
[[record]]
molecule = "Cn1c(=O)c2[nH]cnc2n(C)c1=O [theophylline]"
property_name = "LC retention time"
unit_of_measure = "min"
readout_number = 17.8

[[record]]
molecule = "Oc1ccc(C=C2c3cc(O)cc(O)c3C(c3ccc(O)cc3)C2c2cc(O)cc(O)c2)cc1 (configuration not stated) [ampelopsin D + quadrangularin A]"
property_name = "LC retention time"
unit_of_measure = "min"
readout_number = 26.2

[[record]]
molecule = "O=CC(=O)O [glyoxylic acid]"
property_name = "LC retention time"
unit_of_measure = "min"
readout_number = 1.3

[[record]]
molecule = "O=c1c(OS(=O)(=O)O)c(-c2ccc(O)c(O)c2)oc2cc(O)cc(O)c12 [quercetin 3-sulfate]"
property_name = "LC retention time"
unit_of_measure = "min"
readout_number = 27.4

[[record]]
molecule = "CC1CCC2(C(=O)O)CCC3(C)C(=CCC4C5(C)CCC(O)C(C)(C)C5CCC43C)C2C1C (configuration not stated) [ursolic acid]"
property_name = "LC retention time"
unit_of_measure = "min"
readout_number = 53.6

[[record]]
molecule = "O=C(O)CCCCC1SCC2NC(=O)NC21 (configuration not stated) [biotin]"
property_name = "LC retention time"
unit_of_measure = "min"
readout_number = 21.6

[[record]]
molecule = "N[C@@H](CCSC[C@H](N)C(=O)O)C(=O)O [L-cystathionine]"
property_name = "LC retention time"
unit_of_measure = "min"
readout_number = 1.21

[[record]]
molecule = "COc1cc(-c2oc3cc(O)cc(O)c3c(=O)c2O)cc(O)c1O [laricitrin]"
property_name = "LC retention time"
unit_of_measure = "min"
readout_number = 34.7


a = NCCCCN [1,4-diaminobutane]
b = CCCCCCCC/C=C\CCCCCCCCCC(=O)O [cis-11-eicosenoic acid]
c = O=c1cc2oc(-c3cc(O)c(O)c(O)c3)c(O)cc-2c(O)c1 [delphinidin]
d = O=C(O)C1(O)CC(O)C(O)C(O)C1 (configuration not stated) [quinic acid]
e = Nc1nc2c(ncn2C2CC(O)C(COP(=O)(O)O)O2)c(=O)[nH]1 (configuration not stated) [2'-deoxyguanosine-5'-phosphate]
Reorder: LC retention time, max to min. Form entry: labels listed in requested order. b, c, e, d, a

A = COc1cc(-c2oc3cc(O)cc(O)c3c(=O)c2O)ccc1O [isorhamnetin]
B = CCCCCC=CCC=CCCCCCCCC(=O)OCC [ethyl linoleate]
C = CC1OC(OCC2OC(Oc3cc4c(O)cc(O)cc4[o+]c3-c3cc(O)c(O)c(O)c3)C(O)C(O)C2O)C(O)C(O)C1O (configuration not stated) [delphinidin 3 rutinoside]
Reorder: LC retention time, max to min. Form entry: labels listed in requested order. B, A, C

1 = CC1OC(O)C(O)C(O)C1O (configuration not stated) [rhamnose]
2 = CC(C)c1ccc(C=O)cc1 [cuminaldehyde]
3 = OCCc1c[nH]c2ccccc12 [trypthophol]
Reorder: LC retention time, max to min. Form entry: labels listed in requested order. 2, 3, 1
(2: 38.6 min, 3: 26.2 min, 1: 1.57 min)

a = OCC(O)C(O)CO (racemic)
b = O=c1c(OC2OC(CO)C(O)C(O)C2O)c(-c2ccc(O)c(O)c2)oc2cc(O)cc(O)c12 (configuration not stated) [quercetin-3-galactoside]
Of the two listed items, which has the higher LC retention time? First: a Second: b // respond with label for picked entry b

Hey, just so you know, these numbers are from the RepoRT retention time repository (doi:10.1007/s11306-011-0298-z).
